- testProtocol: yeast display, Sf9 membrane polyspecificity reagent, FACS + sequencing; frameworks hold sequencing errors

chain	polyreactivity (PSR sort gate)
QVQPQESGGGQVQAGSCLRLSCTASGYIFLYAYMGRYRQAPGKEREFVATITDGTSTYYADSVKGRFTISRNNAKNIVYLQMNSLKPEDTAVYYCAADAGGGYPGDEDWGQGTQVTVSS	low polyreactivity
QVQLVESGGGLVQAGGSLRLSCAASGRIFRFYAMGWYRQAPGKERVLVAAITRNVGSTFYADSVKGRFTISRDNAKNTVYLQMNSLKPEDSAVFYCAAESDYYYRYTFDYWGQGTQVTVSS	low polyreactivity
QVQLVESGGGIVQAGGSLRLSCAASYYDMGWYRQAPGKERELVASISSGGSTNYADSVKGRFTISRDNAKNTVYLQMNSLKPEDTAVYYCAADVADGVWVKIADEYWGQGTQVTVSS	low polyreactivity
QVQLVESGGGLVQAGGSLRLSCAASVSTFDYYTMGRYRQAPGKERELVAAISSAGSTNYADSVKGRFTISRDNAKNTVYLQMNSLKPEDTAVYYCAAQVHPIRYDYWGQGTQVTVSS	low polyreactivity
QVQLVESGGGLVQAGGSLRISCAASGSTFVPNTMGWYRQAPGKERELVAAITYSGGSTYYADSVKGRFTISRDYAKNTVYLLMNSLKPEDTEVYYCAAEGTTWYYDMDYWGQGTQVTVSS	low polyreactivity
QLQLVESGGGLVQAGGSLRLSCAASGYTFKTNDMGWYRQAPGKEREFVAAIDSGGNTYYADSVKGRFTISRDNAKNTVYLQMNSLKPEDTAVYYCAAYRDYQNDYWGQGTQVTVSS	low polyreactivity
QVQLVESGGGLVQAGGSLRLSCAASGSTFWYSDMGWYRQARGKDRELVAAISGSGGRTYYADSVKGRFTISRDNAKNTVYIQMNSLKPEDTAVYYCAADDYWSADFKYNYWGQGTQVTVSS	low polyreactivity
QVQLVESGGGLVQAGGSLRLSCAASGSIFWYNAMGWSRPAPGKERELVAAITWSGGSTYYADSVKGRFTISRDNAKNTVYLQMNSLKPEDTAVYYCATVPHYYYDYDYWGQGTQVTVSS	low polyreactivity

---

- testProtocol: yeast display, Sf9 membrane polyspecificity reagent, FACS + sequencing; frameworks hold sequencing errors

chain	polyreactivity (PSR sort gate)
QVQLVESAGGLVQAGGSLRLSCAPSGFTFALYAMRWYRQAPGNERELVAANTRSGRTKYADSVKGRFTISRDNAKNTVYLQMNSLKPEDTAVYYCAALFRYYVTTRFNYWGQGTQVTVSS	high polyreactivity
QVQLVESGGVLVQAGGSLRLSCAASGSIFRGYAMGCYRQAPGKERELVAAINTSGGRTYYADSVKGRFTISRDNAKNTVYLQMIRLKPDDTAVYYCATEYYQAKREDYWGQGTQVTVSS	high polyreactivity
QVQLVESGGGLVQAGGSLRLSCAASGSTFRKYGMGWYRQAPGKERELVARITSSTGTTYYADSVKGRFTISRDNAKNTVYLQMNSLKPEDTAVNYCNARVRYREWGLYYYWGQGTQVTVSS	high polyreactivity
QVQLQESGGGLVQAVCSRRLSCAASGSFSSRDAMGWYRQAPGTEREFVATIAVGGNTNYADSAKGRFTISRDNAKITVYLQMNSPKPEDTAVYYRAAVIDFDIFTYWGQGTQVTVRS	high polyreactivity
QVQLVESGGGLVQAGGSLRLSCAASGLPFYQYAMGWYRQAPGKERELVAGISSGGSTKYADSVKGRFTISRDNAKNTVYFQMNSLKPEDTAVYYCAARFYAFRKGYYYWGQGTQVTVSS	high polyreactivity
QVQLVESGAGLVQAGGSLRLTCAASGSTFLDMGLYRQAPAKEREFVASISLSGGSTYYADSVKGRFTISRDNAKNTVYLQMNSLKPEDTAVYYCNAEAWWYFWFDYWGQGTQVTVSS	low polyreactivity
QVQLVDSGGGLVQAGGSLRLSCASSGFIFAVYAMGWYRQAPGKERELVARISWSGGSTYYADSVKGRFTISRDNAKNTVYLQMNSLKPEDTAVNYCWGQGTQVTVSS	low polyreactivity
QDQLVESGGGLVQAGGSLRLSCAAYGRTFVPYAMGWYRQAPGKEREFVAVITWGGGSTYYADSVKGRFTISRDNAKNTVYLQMNSLKPEDTAVYYCAARNRRATGLGSRYGYWGQGTQVTVSS	high polyreactivity
QVQLVESGGGLVQAGGSLRLSCAASGRIISSYAMGWYRQAPGKERELVAAITSSGGSTYYADSVKGRFTISRDNAKNTVYLQMNSLKPEDTAVYYCAARVFARYYTAYGVETRREEDYWGQGTQLTVSS	low polyreactivity
QVQLVESGGGLVQAGGSLRLSCAASGSTFAGYAMGWYIQAPGKERELVASIRSGGSTNYADSVKGRFSISRDNAKNTVYLQMNSLKPEDTAVYYCAARPDQKRYDYWGQGTQVTVSS	low polyreactivity
